Assay: activity coefficient (dimensionless); of the first substance listed, at infinite dilution; xn = mol fraction of the nth substance listed
Details: 338.15 K; 101 kPa; Liquid; Chromatography; x1 = 0
// label = yes (1) if activity coefficient is not less than 1, otherwise no (0)

Solved cases below.
CCOC(C)=O [ethyl acetate] + CCCC[n+]1ccc(C)cc1.N#CC(=C=[N-])C#N : yes (1)
C1CCCCCC1 [cycloheptane] + CCCC[n+]1ccc(C)cc1.N#CC(=C=[N-])C#N : yes (1)
CC#N [acetonitrile] + CCCC[n+]1ccc(C)cc1.N#CC(=C=[N-])C#N : no (0)

Req: Please indicate if the recorded activity coefficient for Cc1cccc(C)c1 [1,3-dimethylbenzene] + CCCC[n+]1ccc(C)cc1.N#CC(=C=[N-])C#N meets or exceeds 1.
Resp: yes (1)

Req: Is the recorded value of activity coefficient equal to or greater than 1 for this compound? Cc1ccc(C)cc1 [1,4-dimethylbenzene] + CCCC[n+]1ccc(C)cc1.N#CC(=C=[N-])C#N
Resp: yes (1)

Req: Form field: activity coefficient at least 1? Entry: CC(C)O [propan-2-ol] + CCCC[n+]1ccc(C)cc1.N#CC(=C=[N-])C#N
Resp: yes (1)

Req: // inclusive: activity coefficient at least 1? input: CCCO [propan-1-ol] + CCCC[n+]1ccc(C)cc1.N#CC(=C=[N-])C#N
Resp: no (0)

src = the NIST ThermoML archive (doi:10.1016/j.jct.2014.12.027)
